// data source = PubChem BioAssay AID1963424

tested on: 327498-153-R-J2-PDC complex spheroid growth, % test/control; test: Anticancer human tumor 327498-153-R-J2-PDC patient-derived uterine carcinosarcoma cell line growth inhibition [Asc]; conditions: second compound 0.01 µM; first compound 10 µM; active = viability on the fitted dose curve at most 10% of control; inactive = the rest;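 note: spheroids exposed to compound for 7 days after 3 days of growth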
Returns: one label drawn from T = active, F = inactive

Query: What call does the record list for O=C(c1cc(Cc2n[nH]c(=O)c3ccccc23)ccc1F)N1CCN(C(=O)C2CC2)CC1 + CNC(C)C(=O)NC1CN(S(=O)(=O)c2cccc(S(=O)(=O)N3CCC4CCC(C(=O)NC(c5ccccc5)c5ccccc5)N4C(=O)C(NC(=O)C(C)NC)C3)c2)CCC2CCC(C(=O)NC(c3ccccc3)c3ccccc3)N2C1=O ?
Result: F

Query: recorded result category for C=CC(=O)N1CCN(c2nc(=O)n(-c3c(C)ccnc3C(C)C)c3nc(-c4c(O)cccc4F)c(F)cc23)C(C)C1 (centres undefined) + CNC(C)C(=O)NC1CN(S(=O)(=O)c2cccc(S(=O)(=O)N3CCC4CCC(C(=O)NC(c5ccccc5)c5ccccc5)N4C(=O)C(NC(=O)C(C)NC)C3)c2)CCC2CCC(C(=O)NC(c3ccccc3)c3ccccc3)N2C1=O in this test
Result: F

Query: Call for entry C#Cc1c(F)ccc2cc(O)cc(-c3ncc4c(N5CC6CCC(C5)N6)nc(OCC56CCCN5CC(F)C6)nc4c3F)c12 (centres undefined) + CNC(C)C(=O)NC1CN(S(=O)(=O)c2cccc(S(=O)(=O)N3CCC4CCC(C(=O)NC(c5ccccc5)c5ccccc5)N4C(=O)C(NC(=O)C(C)NC)C3)c2)CCC2CCC(C(=O)NC(c3ccccc3)c3ccccc3)N2C1=O :
Result: F

Query: // return assay outcome for C=C(F)C(=O)N1CCN(c2nc(OCC3CCCN3C)nc3c2CCN(c2cccc4cccc(Cl)c24)C3)CC1CC#N (centres undefined) + CNC(C)C(=O)NC1CN(S(=O)(=O)c2cccc(S(=O)(=O)N3CCC4CCC(C(=O)NC(c5ccccc5)c5ccccc5)N4C(=O)C(NC(=O)C(C)NC)C3)c2)CCC2CCC(C(=O)NC(c3ccccc3)c3ccccc3)N2C1=O
Result: T
